- subject of test: T1, human GIP receptor (human, UniProt P48546 22-466)
- T1 sequence (looked up): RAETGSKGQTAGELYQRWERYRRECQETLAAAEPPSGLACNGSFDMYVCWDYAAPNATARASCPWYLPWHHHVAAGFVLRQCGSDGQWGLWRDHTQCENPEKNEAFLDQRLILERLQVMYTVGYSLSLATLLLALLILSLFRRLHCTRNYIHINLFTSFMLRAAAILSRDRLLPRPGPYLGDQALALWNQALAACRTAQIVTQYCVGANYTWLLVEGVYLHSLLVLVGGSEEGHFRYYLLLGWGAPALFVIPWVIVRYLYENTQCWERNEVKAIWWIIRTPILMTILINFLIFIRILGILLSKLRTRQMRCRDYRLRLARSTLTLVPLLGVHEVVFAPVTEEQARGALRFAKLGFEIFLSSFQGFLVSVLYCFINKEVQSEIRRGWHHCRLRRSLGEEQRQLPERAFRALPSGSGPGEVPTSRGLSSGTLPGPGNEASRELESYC
- assay protocol: cell-based or functional assay
Numbered stars: 1 amine (or outer) side, 2 acyl side, 3 side chain; on linkers, the order of the positions; unused ones are H or OH. Square brackets hold non-standard residues; d marks the D form. Side chains are listed from the residue outwards. Ends that are not written are not given here. * marks the point of attachment. C20 diacid = O=C(O)CCCCCCCCCCCCCCCCCCC(=O)*; γGlu = O=C(O)[C@H](CCC(=O)[*:2])N[*:1]; Desaminohistidyl = O=C(CCc1c[nH]cn1)*; αMeF = C[C@](N)(Cc1ccccc1)C(=O)O; αMeK = C[C@](N)(CCCCN)C(=O)O; Dab = NCC[C@H](N)C(=O)O; AEEA = NCCOCCOCC(=O)O; Aib = CC(C)(N)C(=O)O
List of hGIPR cAMP EC50 ratio values.

binder	hGIPR cAMP EC50 ratio
XXEGTFTSDYSILLDKKAQXAFIEYLIEGGPSSGAPPPS (D-Tyr1; Aib2; K17((2-[2-(2-Amino-ethoxy)-ethoxy]-acetyl)2-(γ-Glu)-CO-(CH2)18-CO2H); Aib20; C-terminal NH2) [Example 78]	0.293
YXEGTXTSDYSILLDKKAQXAFIEYLIEGGPSSGAPPPS (Aib2; αMeF6; K17((2-[2-(2-Amino-ethoxy)-ethoxy]-acetyl)2-(γ-Glu)-CO-(CH2)18-CO2H); Aib20; C-terminal NH2) [Example 57]	1.74
YXEGTFTSDYSIXLDEKAQXAFIEYLLEGGPSSGAPPPS (not fully specified; Aib2; αMeF13 as printed (likely αMeL13); K17((2-[2-(2-Amino-ethoxy)-ethoxy]-acetyl)2-(γ-Glu)-CO-(CH2)18-CO2H); Aib20; C-terminal NH2) [Example 66]	1.89
YXEGTXTSDYSILLDKIAQXAFIEYLIKGG (Aib2; αMeF6; Aib20; K28((2-[2-(2-Amino-ethoxy)-ethoxy]-acetyl)2-(γ-Glu)-CO-(CH2)18-CO2H); C-terminal NH2) [Example 95]	0.145
YXEGTXTSDYSILLDKIAQXKFIEYLIEGG (Aib2; αMeF6; Aib20; K21((2-[2-(2-Amino-ethoxy)-ethoxy]-acetyl)2-(γ-Glu)-CO-(CH2)18-CO2H); C-terminal NH2) [Example 94]	0.434
YXEGTXTSDVSIXLDXKAQXEFIXXLIEGGPSSGAPPPS (Aib2; αMeF(2F)6; αMeL13; Orn16; K17((2-[2-(2-Amino-ethoxy)-ethoxy]-acetyl)2-(γ-Glu)-CO-(CH2)16-CO2H); Aib20; D-Glu24; αMeY25; C-terminal NH2) [Example 5]	6.27
[Desaminohistidyl][Aib]EGTFTSDYSILLDKK([AEEA-AEEA-γGlu-C20 diacid])AQ[Aib]AFIEYLIEGGPSSGAPPPS-NH2 (also: ψ[NHCO] bond between DesHis1 and Aib2) [Example 105]	0.101
YXEGTXTSDXSIXLDXKAQXEFIXXLIEGGPSSGAPPPS (Aib2; αMeF(2F)6; 4Pal10; αMeL13; Orn16; K17((2-[2-(2-Amino-ethoxy)-ethoxy]-acetyl)2-(γ-Glu)-CO-(CH2)16-CO2H); Aib20; D-Glu24; αMeY25; C-terminal NH2) [Example 4]	5.95
XAEGTFTSDYSILLDKKAQXAFIEYLIEGGPSSGAPPPS (N-terminal Ac; D-Tyr1; K17((2-[2-(2-Amino-ethoxy)-ethoxy]-acetyl)2-(γ-Glu)-CO-(CH2)18-CO2H); Aib20; C-terminal NH2) [Example 79]	2.11
Y[Aib]EGTFTSDYSILLDKIAQ[Aib]AFK([AEEA-AEEA-γGlu-C20 diacid])EYLIEGGPSSGAPPPS-NH2 [Example 33]	0.00222
Y[Aib]EGTFTSDYSILLDKIAQKEFIQYLLE[Aib]GPSSGAPPPS-NH2 (not fully specified (residue 20)) [Example 14]	0.545
H[Aib]EGTFTSDYSI[αMeF]LDKK([Dab-AEEA-Dab-AEEA-C20 diacid])AQ[αMeK]AFIQYLLA[Aib]GPSSGAPKPS-NH2 [Example 18]	0.275
Y[Aib]EGTFTSDYSILLDKIAQ[Aib]AFIKYLIEGGPSSGAPPPS-NH2 (not fully specified (residue 24)) [Example 34]	0.393
YXEGTXTSDYSIXLDKKAQXAFIEYLIEGGPSSGAPPPS (not fully specified; Aib2; αMeF6; αMeF13 as printed (likely αMeL13); K17((2-[2-(2-Amino-ethoxy)-ethoxy]-acetyl)2-(γ-Glu)-CO-(CH2)18-CO2H); Aib20; C-terminal NH2) [Example 69]	2.73
YXEGTXTSDYSILLDKKAQXAFIEYLIEGG (Aib2; αMeF6; K17((2-[2-(2-Amino-ethoxy)-ethoxy]-acetyl)2-(γ-Glu)-CO-(CH2)18-CO2H); Aib20; C-terminal NH2) [Example 98]	2.43
YXEGTXTSDYSIXLDKKAQXAXIEYLIEGGPSSGAPPPS (not fully specified; Aib2; αMeF6; αMeF13 as printed (likely αMeL13); K17((2-[2-(2-Amino-ethoxy)-ethoxy]-acetyl)2-(γ-Glu)-CO-(CH2)18-CO2H); Aib20; αMeF22; C-terminal NH2) [Example 76]	1.24
YXEGTFTSDYXILLDKKAQXAFIEYLIEGGPSSGAPPPS (Aib2; D-Ser11; K17((2-[2-(2-Amino-ethoxy)-ethoxy]-acetyl)2-(γ-Glu)-CO-(CH2)18-CO2H); Aib20; C-terminal NH2) [Example 81]	0.373
YXXGTFTSDYSILLDKKAQXAFIEYLIEGGPSSGAPPPS (Aib2; Aad3; K17((2-[2-(2-Amino-ethoxy)-ethoxy]-acetyl)2-(γ-Glu)-CO-(CH2)18-CO2H); Aib20; C-terminal NH2) [Example 89]	1.57
H[Aib]EGTFTSDYSILLDKKAQ[Aib]AFIEYLLE[Aib]GPSSGAPPPS-NH2 (not fully specified (residue 17)) [Example 15]	0.273
[Desaminohistidyl][Aib]EGTFTSDYSILLDKK([AEEA-AEEA-γGlu-C20 diacid])AQ[Aib]AFIEYLIEGGPSSGAPPPS-NH2 [Example 106]	0.0302
YXEGTFTSDYSILLDKKAQXAFIXYLIEGGPSSGAPPPS (Aib2; K17((2-[2-(2-Amino-ethoxy)-ethoxy]-acetyl)2-(γ-Glu)-CO-(CH2)18-CO2H); Aib20; D-Glu24; C-terminal NH2) [Example 84]	1.59
YXEGTFTSDYSIXLDKKAQXAXIEYLIEGGPSSGAPPPS (not fully specified; Aib2; αMeF13 as printed (likely αMeL13); K17((2-[2-(2-Amino-ethoxy)-ethoxy]-acetyl)2-(γ-Glu)-CO-(CH2)18-CO2H); Aib20; αMeF22; C-terminal NH2) [Example 74]	1.7
